This collection of values is drawn from patent US20080051420A1.

# STUDY_SYSTEM: human β-secretase (Homo sapiens, UniProt P56817)
# Construct: The soluble part of the human β-secretase (AA 1-AA 460) was cloned; made in house
# Sequence (P56817 22-460): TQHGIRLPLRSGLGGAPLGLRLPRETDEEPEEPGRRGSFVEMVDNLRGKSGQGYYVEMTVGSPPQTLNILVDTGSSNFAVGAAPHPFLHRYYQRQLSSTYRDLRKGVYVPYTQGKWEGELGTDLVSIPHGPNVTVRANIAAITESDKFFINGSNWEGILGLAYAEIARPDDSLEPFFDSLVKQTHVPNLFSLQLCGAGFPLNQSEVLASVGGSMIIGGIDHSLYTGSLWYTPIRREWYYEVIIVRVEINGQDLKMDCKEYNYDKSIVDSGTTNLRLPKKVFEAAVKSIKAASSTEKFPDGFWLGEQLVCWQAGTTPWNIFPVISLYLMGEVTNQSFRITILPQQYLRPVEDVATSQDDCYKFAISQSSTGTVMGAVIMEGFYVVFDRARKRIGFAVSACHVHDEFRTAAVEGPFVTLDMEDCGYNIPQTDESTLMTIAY
# METHOD: TR-FRET assay (β-secretase enzyme, sBACE-Fc)
# Assay type: biochemical
# ASSAY_CONDITIONS: read-out: IC50 in TR-FRET assay
READOUT_NAME: pIC50
Convention used: pIC50 is expressed as -log10 of the molar concentration.

Specify pIC50 for CCCS(=O)(=O)Oc1cccc(C2(c3cccc(-c4cncnc4)c3)N=C(N)N3CCCN=C32)c1 (stereo not shown) [Example 125] and stop.
7.29

Note pIC50 for the molecule shown: COc1cccc(-c2cccc(C3(c4cccc(OS(C)(=O)=O)c4)N=C(N)N4CCCN=C43)c2)c1 (stereo not shown) [Example 118]
6.19

Please indicate pIC50 recorded for COc1cc(OS(C)(=O)=O)cc(-c2cccc(C3(c4cccc(OC)c4)N=C(N)N4CCCN=C43)c2)c1 (stereo not shown) [Example 133]
6.43

Supply recorded pIC50 for NC1=NC(c2ccc(OS(=O)(=O)C3CC3)cc2)(c2cccc(-c3cccc(C(F)(F)F)c3)c2)C2=NCCCN12 (stereo not shown) [Example 70] here.
6.21

Using known records, supply pIC50 for CS(=O)(=O)Oc1ccc(C2(c3cccc(-c4cncc(F)c4)c3)N=C(N)N3CCCN=C32)cc1 (stereo not shown) [Example 33, methanesulfonate acetate]
6.40

Check the records and state pIC50 for CC(C)S(=O)(=O)Oc1ccc(C2(c3cccc(-c4cc(Cl)cc(Cl)c4)c3)N=C(N)N3CCN=C32)cc1 (stereo not shown) [Example 81]
6.38

Recall and state the measured pIC50 for CCCS(=O)(=O)Oc1ccc(C2(c3cccc(-c4cccc(Cl)c4)c3)N=C(N)N3CCCN=C32)cc1 (stereo not shown) [Example 57] .
7.15

* * *

# STUDY_SYSTEM: human β-secretase (Homo sapiens, UniProt P56817)
# Construct: The soluble part of the human β-secretase (AA 1-AA 460) was cloned; made in house
# METHOD: TR-FRET assay (β-secretase enzyme, sBACE-Fc)
# Format: biochemical
# ASSAY_CONDITIONS: read-out: IC50 in TR-FRET assay
READOUT_NAME: log10 of IC50 (log10 of the value in nM)
A difference of one corresponds to tenfold IC50; all values are log10 with IC50 in nM.

Kindly indicate its recorded log10 of IC50. Item: CN(C)C(=O)c1cccc(C2(c3cccc(-c4cccnc4F)c3)N=C(N)N3CC(F)(F)CN=C32)c1 (centres unmarked) [Example 145]
2.35

For the compound CS(=O)(=O)Oc1cccc(C2(c3cccc(-c4cccnc4)c3)N=C(N)N3CCCN=C32)c1 (centres unmarked) [Example 119] , give its reported log10 of IC50.
2.88

Could you please provide reported log10 of IC50 for CN(C)C(=O)c1ccc(C2(c3cccc(-c4cccnc4F)c3)N=C(N)N3CC(F)(F)CN=C32)cc1 (centres unmarked) [Example 146] ? Thanks!
2.33

Annotate the compound COc1cccc(-c2cccc(C3(c4ccc(OS(C)(=O)=O)cc4)N=C(N)N4CCN=C43)c2)c1 (centres unmarked) [Example 74] with its measured log10 of IC50.
2.65

Let me know recorded log10 of IC50 for COc1cncc(-c2cccc(C3(c4ccc(OS(C)(=O)=O)cc4)N=C(N)N4CCCN=C43)c2)c1 (centres unmarked) [Example 34, methanesulfonate acetate] , thanks.
2.21

Return log10 of IC50 (reported value) for this compound: NC1=NC(c2cccc(OS(=O)(=O)C3CC3)c2)(c2cccc(-c3cc(Cl)cc(Cl)c3)c2)C2=NCCCN12 (centres unmarked) [Example 126]
2.19

Consider the compound CC(C)S(=O)(=O)Oc1ccc(C2(c3cccc(-c4cccnc4F)c3)N=C(N)N3CCN=C32)cc1 (centres unmarked) [Example 84] . State its measured log10 of IC50.
3.40

Output measured log10 of IC50 for this item: COc1cccc(-c2cccc(C3(c4ccc(OS(C)(=O)=O)cc4)N=C(N)N4CCCN=C43)c2)c1 (centres unmarked) [Example 31, methanesulfonate acetate]
2.19

* * *

# STUDY_SYSTEM: human β-secretase (Homo sapiens, UniProt P56817)
# Construct: The soluble part of the human β-secretase (AA 1-AA 460) was cloned; made in house
# METHOD: TR-FRET assay (β-secretase enzyme, sBACE-Fc)
# Assay type: biochemical
# ASSAY_CONDITIONS: read-out: IC50 in TR-FRET assay
So I've got a bunch of compounds here, and I need their pIC50 values.
By convention, pIC50 is the negative base-10 log of a molar concentration.

Find the measured pIC50 of CS(=O)(=O)Oc1cccc(C2(c3cccc(-c4cc(Cl)cc(Cl)c4)c3)N=C(N)N3CCCN=C32)c1 (centres unmarked) and report it.
6.55

Consider the compound NC1=NC(c2cccc(OS(=O)(=O)C(F)(F)F)c2)(c2cccc(-c3cc(Cl)cnc3F)c2)C2=NCCCN12 (centres unmarked) . State its measured pIC50.
6.27

Answer with the recorded pIC50 for the compound listed here: COc1cccc(-c2cccc(C3(c4cccc(OS(=O)(=O)C(F)(F)F)c4)N=C(N)N4CCCN=C43)c2)c1 (centres unmarked)
6.33

Answer with reported pIC50 of CCCS(=O)(=O)Oc1ccc(C2(c3cccc(-c4cnccn4)c3)N=C(N)N3CCCN=C32)cc1 (centres unmarked) [Example 54, acetate]
6.46

Quickly give me recorded pIC50 for COc1cncc(-c2cccc(C3(c4ccc(OS(=O)(=O)C(C)C)cc4)N=C(N)N4CCN=C43)c2)c1 (centres unmarked)
5.99

Look up pIC50 of CCCS(=O)(=O)Oc1ccc(C2(c3cccc(-c4cncc(OC)c4)c3)N=C(N)N3CCCN=C32)cc1 (centres unmarked) and report it.
7.02

Tell me its pIC50 given CS(=O)(=O)Oc1cccc(C2(c3cccc(-c4cc(C(F)(F)F)cc(C(F)(F)F)c4)c3)N=C(N)N3CCCN=C32)c1 (centres unmarked) as the entry.
6.61

Note down pIC50 recorded for CCCS(=O)(=O)Oc1cccc(C2(c3cccc(-c4cc(Cl)cc(Cl)c4)c3)N=C(N)N3CCCN=C32)c1 (centres unmarked)
6.97
